Some molecules, each annotated with its measured MIC.
System: Escherichia coli NIHJ
Assay: Minimum inhibitory concentration, serial dilution method
Assay type: cell-based
Settings: 18 h, read-out: Minimum Inhibitory Concentration

molecule: NC1CC(O)C(CO)OC1OC1C(N)CC(N)C(OC2OC(CO)C(O)C(N)C2O)C1O (stereo not shown) [3'-Deoxykanamycin C, 3'-deoxykanamycin C]
MIC: 12.5 µg/mL
//
molecule: NCC1OC(OC2C(N)CC(N)C(OC3OC(CO)C(O)C(N)C3O)C2O)C(N)CC1O (stereo not shown) [DKMB, 3'-deoxykanamycin B, reference compound]
MIC: 0.78 µg/mL
//
molecule: NC1CCC(CO)OC1OC1C(N)CC(N)C(OC2OC(CO)C(O)C(N)C2O)C1O (stereo not shown) [3',4'-Dideoxykanamycin C, 3',4'-dideoxykanamycin C]
MIC: 12.5 µg/mL
//
molecule: NC1CC(N)C(OC2OC(CO)C(O)C(N)C2O)C(O)C1OC1OC(CO)C(O)C(O)C1N (stereo not shown) [Kanamycin C, kanamycin C]
MIC: 3.13 µg/mL
